Provenance of the data: ChEMBL document CHEMBL3860078

assay: Metal chelating activity assessed as Fe2+-compound complex fromation incubated for 5 mins in presence of ferrous chloride hexahydrate followed by ferrozine addition measured after 10 mins
Parameter Measured: IC50 (µM)

[[record]]
molecule = "O=C(O)CN(CCN(CC(=O)O)CC(=O)O)CC(=O)O [EDETIC ACID]"
test_value = 42


---

experiment: Metal chelating activity assessed as Fe2+-compound complex fromation at 3 uM incubated for 5 mins in presence of ferrous chloride hexahydrate followed by ferrozine addition measured after 10 mins; format: physicochemical
Below is a list of entries, each paired with its recorded Activity value.
Parameter Measured: Activity (%)

[[record]]
molecule = "N#Cc1ccc(-c2cc(=S)c3ccc(O)c(O)c3o2)cc1"
test_value = 3.9

[[record]]
molecule = "Oc1ccc2c(=S)cc(-c3ccc(Br)cc3)oc2c1O"
test_value = 4.4

[[record]]
molecule = "O=c1cc(-c2ccccc2)oc2c(O)c(O)ccc12 [7,8-DIHYDROXYFLAVONE]"
test_value = 3.7

[[record]]
molecule = "O=C(O)CN(CCN(CC(=O)O)CC(=O)O)CC(=O)O"
test_value = 6.9

[[record]]
molecule = "Oc1ccc2c(=S)cc(-c3ccc(Cl)cc3)oc2c1O"
test_value = 5

[[record]]
molecule = "O=c1cc(-c2ccc(Cl)cc2)oc2c(O)c(O)ccc12"
test_value = 3.7

[[record]]
molecule = "O=c1cc(-c2ccc(O)c(O)c2)oc2cc(O)cc(O)c12"
test_value = 3.4

